Listed here: items and their measured abundance fitness.
B1: Mineralocorticoid receptor, residues 600 to 675; numbered along this chain, P08235 (parent)
chain: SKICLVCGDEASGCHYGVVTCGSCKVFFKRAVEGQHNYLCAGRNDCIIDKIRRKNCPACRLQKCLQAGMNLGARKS

Variants of: B1
runDescription: abundance fitness (aPCA) (normalised: wild type 0, dead -1); higher = more abundant; growth selection in yeast, the domain comes from the species named
appliedConditions: Homo sapiens
measurementName: abundance fitness

- V6I: 0.008
- L39I: -0.043
- G42Y: -0.051
- L61T: -0.361
- G8H: -0.273
- V18E: -0.202
- K29T: -0.012
- G68P: -0.451
- G72P: 0.011
- V18I: 0.045
- K25P: -0.058
- D45K: -0.072
- C4F: -0.753
- D9Y: -0.161
- C4K: -0.87
